- Test system: DLD-1 colon cancer cells
- assay details: MTT proliferation assay, DLD-1
- Type: cell-based
- run conditions: 48 hours
observed property: IC50

Examples with answers:
- structure notation: "CCCC(=O)Nc1cc(NC(=O)/C=C(C)/C=C/C=C(C)/C=C/C2=C(C)CCCC2(C)C)ccc1O"
  recorded value: "1.5 µM"
- structure notation: "CCCC(=O)Oc1cc(O)ccc1NC(=O)/C=C(C)/C=C/C=C(C)/C=C/C1=C(C)CCCC1(C)C"
  recorded value: "6 µM"

Alright, here's another compound for you.
Task item: What IC50 value was documented for this compound, CC1=C(/C=C/C(C)=C/C=C/C(C)=C/C(=O)Nc2ccc(O)cc2)C(C)(C)CCC1 ?
Reply: 9 µM
